- System: Plasmodium falciparum
- assay-protocol: Antiplasmodial activity against Plasmodium falciparum GB4 after 72 hrs by SYBR green DNA-staining parasite viability assay
- Format: functional, organism-based
Calls of active or inactive are those of the source. The calls are words filed in the database; no cut-off is given here.
Lab note: assign the record to one of active, inactive

[in] How did this test come out for `COCC(=O)N[C@@H](C(=O)N1N=CCC[C@H]1C(=O)N[C@@H](Cc1ccccc1)[C@@H](O)[C@H](C)C(=O)N[C@H]1CCN(C(N)=O)C1=O)[C@H](O)C(C)C` ?
[out] active

[in] Next entry: `COCC(=O)N[C@@H](C(=O)N1NCCC[C@H]1C(=O)N[C@@H](Cc1ccccc1)[C@@H](O)[C@H](C)C(=O)N[C@@H]1CCN(C(N)=O)C1=O)[C@H](O)C(C)C`
[out] active

[in] Next entry: COCC(=O)N[C@@H](C(=O)N1NCCC[C@H]1C(=O)N[C@@H](Cc1ccccc1)[C@@H](O)[C@H](C)C(=O)NC1CNC(=O)NC1=O)[C@H](O)C(C)C (stereo not given in full)
[out] inactive

[in] Next entry: `COCC(=O)N[C@@H](C(=O)N1NCCC[C@H]1C(=O)N[C@@H](Cc1ccccc1)[C@@H](O)[C@H](C)C(=O)N[C@H]1CCNC1=O)[C@H](O)C(C)C`
[out] active

[in] Next entry: `COCC(=O)N[C@@H](C(=O)N1NCCC[C@H]1C(=O)N[C@@H](Cc1ccccc1)[C@@H](O)[C@H](C)C(=O)N[C@H]1CCN(C(C)=O)C1=O)[C@H](O)C(C)C`
[out] active
